Target: human recombinant AT1 receptor (Homo sapiens, UniProt P30556)
Sequence (P30556 1-359): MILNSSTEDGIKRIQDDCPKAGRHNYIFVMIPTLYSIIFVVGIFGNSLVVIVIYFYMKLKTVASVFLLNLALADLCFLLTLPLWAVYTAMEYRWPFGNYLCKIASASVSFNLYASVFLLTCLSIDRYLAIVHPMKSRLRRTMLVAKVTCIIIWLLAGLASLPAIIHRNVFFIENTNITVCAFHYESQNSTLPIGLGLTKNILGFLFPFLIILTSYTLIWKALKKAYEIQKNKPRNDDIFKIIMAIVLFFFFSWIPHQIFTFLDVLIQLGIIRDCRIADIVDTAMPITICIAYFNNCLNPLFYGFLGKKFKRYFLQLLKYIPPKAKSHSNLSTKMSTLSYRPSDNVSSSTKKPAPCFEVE
Assay: Binding to AT1 receptor, radiometric scintillation assay (Eurofins)
Conditions: ligand 125I(sar1,Ile8)-AT-II, tested at 1 and 10 μM
pIC50: −log10 of the molar value.
Endpoint label: pIC50

Worked examples follow.
Compound: Cc1nccn1Cc1ccc(-c2cc(CC(C)C)sc2S(=O)(=O)NC(=O)NCc2cc(F)cc(F)c2)nc1
Value: 4.80

Compound: Cc1nccn1Cc1ncc(-c2cc(CC(C)C)sc2S(=O)(=O)NC(=O)NCc2ccccn2)cn1
Value: 4.29

Compound: Cc1nccn1Cc1ccc(-c2cc(CC(C)C)sc2S(=O)(=O)NC(=O)NCc2cc(Cl)ccn2)cc1F.O=C(O)C(F)(F)F
Value: 4.60

Compound: Cc1nccn1Cc1ccc(-c2cc(CC(C)C)sc2S(=O)(=O)NC(=O)NC(C)c2ccccn2)cc1F (centres unmarked)
Value: 4.52

1. Cc1cn(Cc2ccc(-c3cc(CC(C)C)sc3S(=O)(=O)NC(=O)NCc3ccccn3)cc2)c(C)n1
2. CCc1nccn1Cc1ccc(-c2cc(CC(C)C)sc2S(=O)(=O)NC(=O)NCc2ccc(F)cc2)cc1F.O=C(O)C(F)(F)F
Identify the item whose pIC50 is the smaller number: 1 or 2 Please indicate the selected item by its label.
1

---

system: CYP3A4&5; test: CYP inhibition in human liver microsomes, CYP3A4&5 (testosterone); type: in vitro ADME; settings: probe testosterone, substrate testosterone, read-out: CYP3A4&5 testosterone Inh %
Endpoint label: inhibition at 10 µM (%)

Smiles repr: Cc1nccn1Cc1ccc(-c2cc(CC(C)C)sc2S(=O)(=O)NC(=O)NCC(C)C)cc1F.O=C(O)C(F)(F)F
Target of assay: CYP3A4&5
Result units: %
inhibition at 10 µM: 27

a. Cc1cn(Cc2ccc(-c3cc(CC(C)C)sc3S(=O)(=O)NC(=O)NCc3ccccc3)cc2)c(C)n1
b. Cc1nccn1Cc1ccc(-c2cc(CC(C)C)sc2S(=O)(=O)NC(=O)NCC2CCC(F)(F)CC2)cc1F.O=C(O)C(F)(F)F
Identify the entry with the smaller inhibition at 10 µM: a or b . # respond with the chosen item's label
a

---

assay: Metabolic stability in pooled human liver microsomes; assay type: in vitro ADME; settings: pooled human liver microsomes 0.5 mg/ml, with 1 mM NADPH, 1 μM test compound, 37° C., read-out: T1/2, + NaDPH
Endpoint label: half-life at 1 μM (h)

Smiles repr: Cc1cn(Cc2ccc(-c3cc(CC(C)C)sc3S(=O)(=O)NC(=O)NCCC(F)(F)F)cc2)c(C)n1
Result units: h
half-life at 1 μM: 0.767

Smiles repr: Cc1nccn1Cc1ccc(-c2cc(CC(C)C)sc2S(=O)(=O)NC(=O)NCC(C)C)cc1F.O=C(O)C(F)(F)F
Result units: h
half-life at 1 μM: 1

---

Biological target: human recombinant AT2 receptor (Homo sapiens, UniProt P50052)
Sequence (P50052 1-363): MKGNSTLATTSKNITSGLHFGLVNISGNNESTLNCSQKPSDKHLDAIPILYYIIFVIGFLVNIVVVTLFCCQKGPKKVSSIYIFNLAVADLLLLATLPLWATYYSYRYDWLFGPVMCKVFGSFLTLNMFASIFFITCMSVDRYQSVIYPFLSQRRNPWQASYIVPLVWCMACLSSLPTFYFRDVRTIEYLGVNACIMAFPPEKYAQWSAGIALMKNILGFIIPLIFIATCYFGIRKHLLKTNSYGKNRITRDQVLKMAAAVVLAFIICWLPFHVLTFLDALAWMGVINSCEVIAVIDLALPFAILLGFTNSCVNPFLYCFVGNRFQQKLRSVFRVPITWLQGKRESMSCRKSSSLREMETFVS
Assay: Binding to AT2 receptor, radiometric scintillation assay (Eurofins)
Details: ligand 125I CGP 42112A, tested at 1, 10, 100 and 1000 nM
Endpoint label: IC50 (nM)

Compound: CC(C)Cc1cc(-c2ccc(Cn3ccnc3C(C)C)c(F)c2)c(S(=O)(=O)NC(=O)NCCC(F)(F)F)s1.O=C(O)C(F)(F)F
IC50 [nM]: 4.9
--
Compound: Cc1nccn1Cc1ccc(-c2cc(CC(C)C)sc2S(=O)(=O)NC(=O)NCc2ccccn2)cc1
IC50 [nM]: 5.5
--
Compound: Cc1cn(Cc2ccc(-c3cc(CC(C)C)sc3S(=O)(=O)NC(=O)NCc3ccccn3)cc2)c(C)n1
IC50 [nM]: 119
--
Compound: Cc1nccn1Cc1ccc(-c2cc(CC(C)C)sc2S(=O)(=O)NC(=O)NCc2ccccc2)cc1
IC50 [nM]: 4
--
Compound: Cc1nccn1Cc1ccc(-c2cc(CC(C)C)sc2S(=O)(=O)NC(=O)NCC2CCC(F)(F)CC2)cc1F.O=C(O)C(F)(F)F
IC50 [nM]: 7.7

a. Cc1nccn1Cc1ccc(-c2cc(CC(C)C)sc2S(=O)(=O)NC(=O)NCc2nccn2C)cc1F
b. Cc1nccn1Cc1ccc(-c2cc(CC(C)C)sc2S(=O)(=O)NC(=O)NC(C)c2ccccn2)cc1F (centres unmarked)
Which value of IC50 is smaller, the one for a or the one for b ? Response format: the label of the selected entry.
b
(b: 2.5 nM, a: 4.9 nM)

---

biological target: CYP1A (Homo sapiens, UniProt P05177); construct: incubated with human liver microsomes; tissue Eurofins ITEMG232; host or cells: human liver microsomes; assay: CYP inhibition in human liver microsomes, CYP1A; assay type: in vitro ADME; conditions: probe phenacetin, substrate phenacetin, read-out: CYP1A Inh %
Sequence (P05177 whole entry): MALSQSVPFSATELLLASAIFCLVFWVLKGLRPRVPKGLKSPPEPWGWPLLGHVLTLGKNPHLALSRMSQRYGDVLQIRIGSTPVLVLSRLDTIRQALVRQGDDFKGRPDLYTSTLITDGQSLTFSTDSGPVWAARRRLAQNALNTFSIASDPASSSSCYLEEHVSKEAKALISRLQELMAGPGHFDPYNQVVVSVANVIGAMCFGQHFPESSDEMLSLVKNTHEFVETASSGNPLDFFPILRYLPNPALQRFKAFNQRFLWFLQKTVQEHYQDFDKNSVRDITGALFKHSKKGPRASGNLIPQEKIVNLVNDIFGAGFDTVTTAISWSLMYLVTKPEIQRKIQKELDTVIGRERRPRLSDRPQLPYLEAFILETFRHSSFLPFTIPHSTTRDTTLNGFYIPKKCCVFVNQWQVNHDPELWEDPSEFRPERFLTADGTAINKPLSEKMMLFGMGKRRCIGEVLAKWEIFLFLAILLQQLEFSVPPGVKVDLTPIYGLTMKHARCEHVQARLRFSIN
Endpoint label: inhibition at 10 µM (%)

Past entries and their recorded results:
Molecule: CCc1nccn1Cc1ccc(-c2cc(CC(C)C)sc2S(=O)(=O)NC(=O)NCCC(F)(F)F)cc1F.O=C(O)C(F)(F)F [Example 30, trifluoroacetic acid]
inhibition at 10 µM / %: -1
--
Molecule: Cc1nccn1Cc1ccc(-c2cc(CC(C)C)sc2S(=O)(=O)NC(=O)NCc2ccccc2)cc1 [Example 1]
inhibition at 10 µM / %: 7.3
--
Molecule: Cc1nccn1Cc1ccc(-c2cc(CC(C)C)sc2S(=O)(=O)NC(=O)NCC(C)C)cc1F.O=C(O)C(F)(F)F [Example 39, trifluoroacetic acid]
inhibition at 10 µM / %: -2

I. Cc1nccn1Cc1ccc(-c2cc(CC(C)C)sc2S(=O)(=O)NC(=O)NCc2ccccn2)cc1F [Example 13]
II. CCc1nccn1Cc1ccc(-c2cc(CC(C)C)sc2S(=O)(=O)NC(=O)NCc2ccccc2)cc1 [Example 6]
III. Cc1nccn1Cc1ccc(-c2cc(CC(C)C)sc2S(=O)(=O)NC(=O)NCCc2c[nH]cn2)cc1F [Example 16]
Highest inhibition at 10 µM first, then in falling order down to the smallest. Show the ranking through the labels, in the order asked for.
III, I, II

a. Cc1nccn1Cc1ccc(-c2cc(CC(C)C)sc2S(=O)(=O)NC(=O)NCCC(F)(F)F)cc1F [Example 14]
b. Cc1nccn1Cc1ccc(-c2cc(CC(C)C)sc2S(=O)(=O)NC(=O)NCc2cccs2)cc1F.O=C(O)C(F)(F)F [Example 35, trifluoroacetic acid]
Which record shows the lower inhibition at 10 µM: the first, a , or the second, b ? To answer, give the label that identifies your chosen option.
a

---

molecular target: CYP2C19 (Homo sapiens, UniProt P33261); construct: incubated with human liver microsomes; tissue Eurofins ITEMG232; host or cells: human liver microsomes; assay: CYP inhibition in human liver microsomes, CYP2C19; format: in vitro ADME; settings: probe omeprazole, substrate omeprazole, read-out: CYP2C19 Inh %
Sequence (P33261 whole entry): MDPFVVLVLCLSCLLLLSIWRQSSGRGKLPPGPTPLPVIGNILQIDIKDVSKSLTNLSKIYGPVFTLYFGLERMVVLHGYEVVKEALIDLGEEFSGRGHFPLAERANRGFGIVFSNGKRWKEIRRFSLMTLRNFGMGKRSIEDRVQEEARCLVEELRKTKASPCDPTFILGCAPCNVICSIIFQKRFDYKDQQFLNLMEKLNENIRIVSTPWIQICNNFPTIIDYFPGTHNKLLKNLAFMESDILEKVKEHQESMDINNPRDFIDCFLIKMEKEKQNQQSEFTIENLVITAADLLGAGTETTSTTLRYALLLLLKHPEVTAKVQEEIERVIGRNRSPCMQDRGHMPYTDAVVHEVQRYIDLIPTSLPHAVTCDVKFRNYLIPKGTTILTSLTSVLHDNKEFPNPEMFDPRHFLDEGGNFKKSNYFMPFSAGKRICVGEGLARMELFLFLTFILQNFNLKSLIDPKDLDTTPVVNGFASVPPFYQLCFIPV
Endpoint label: inhibition at 10 µM (%)

Solved cases below.
Smiles repr: Cc1nccn1Cc1ccc(-c2cc(CC(C)C)sc2S(=O)(=O)NC(=O)N(C)Cc2ccccn2)cc1F
Target of assay: CYP2C19 (Homo sapiens, UniProt P33261)
Value: 54
//
Smiles repr: Cc1nccn1Cc1ccc(-c2cc(CC(C)C)sc2S(=O)(=O)NC(=O)NCCCC(F)(F)F)cc1F
Target of assay: CYP2C19 (Homo sapiens, UniProt P33261)
Value: 78
//
Smiles repr: Cc1cn(Cc2ccc(-c3cc(CC(C)C)sc3S(=O)(=O)NC(=O)NCc3ccccc3)cc2)c(C)n1
Target of assay: CYP2C19 (Homo sapiens, UniProt P33261)
Value: 61
//
Smiles repr: Cc1nccn1Cc1ccc(-c2cc(CC(C)C)sc2S(=O)(=O)NC(=O)NCc2cc(Cl)ccn2)cc1F.O=C(O)C(F)(F)F
Target of assay: CYP2C19 (Homo sapiens, UniProt P33261)
Value: 58
//
Smiles repr: CC(C)Cc1cc(-c2ccc(Cn3ccnc3C(C)C)c(F)c2)c(S(=O)(=O)NC(=O)NCCC(F)(F)F)s1.O=C(O)C(F)(F)F
Target of assay: CYP2C19 (Homo sapiens, UniProt P33261)
Value: 53

I. Cc1nccn1Cc1ccc(-c2cc(CC(C)C)sc2S(=O)(=O)NC(=O)NCc2ccccc2)cc1
II. CCc1nccn1Cc1ccc(-c2cc(CC(C)C)sc2S(=O)(=O)NC(=O)NCCOC)cc1
Compare reported inhibition at 10 µM values for I and II . Which is lower? Write down the label attached to your selection.
II
(II: 37.9%, I: 59.1%)
